The values you see were collected from PubChem BioAssay (NCI).

System: PC-3 prostate
Assay: NCI tumour cell line growth inhibition, 48 h
Result type: TGI

Observe how each entry below is paired with its result.
# Compound, Result type, Measured result
measured = [
    ("Cc1nn(CNc2ccccc2C(F)(F)F)c(=S)n1/N=C/c1ccc(F)cc1", "TGI", "> 100 µM"),
    ("CCN(CC)C1Oc2cc3c(cc2C(c2cc(OC)c(OC)c(OC)c2)C1C)OCO3 (stereo unspecified)", "TGI", "> 57.4 µM"),
    ("CC(=O)c1cc(-c2ccccc2N)n(-c2ccc3c(c2)OCO3)c1C", "TGI", "> 100 µM"),
]

Consider now this further compound.
Prompt line: Fill blank: measured TGI of the compound O=C(O)COc1cc(-c2ccccc2)nc2ccccc12 is ____.
Response line: > 100 µM

---

This section presents compounds with their documented log10(TGI) values.
System: SK-OV-3 ovarian
Assay: NCI tumour cell line growth inhibition, 48 h
*1 amine or outer side, *2 acyl side, *3 side chain or, on linkers, in order; H or OH if unused. Where a SMILES comes first, the peptide text is derived from it. Bridges are numbered along the chain shown (N, C = ends). [ ]: non-standard residue; d: D form. ξ: configuration not given here. X35 = CC[C@H](C)[C@@H](N[*:1])[C@@H](O)CC(=O)O[C@H](C(=O)[C@H](C)C(=O)[*:2])C(C)C; NMeY = CN[C@@H](Cc1ccc(O)cc1)C(=O)O; dNMeL = CN[C@H](CC(C)C)C(=O)O; ξΔPro = O=C(O)C1C=CCN1
Record value = log10 of TGI given in µM.

Below are worked cases with known answers.
# Compound, log10(TGI)
rows = [
    ("CC1=NOC(=O)C1N=Nc1ccc(Br)c(C)c1 (configuration not stated)", 1.99),
    ("C[C@]12CC[C@@H](OC(=O)N(CCCl)N=O)C[C@@H]1CC[C@@H]1[C@@H]2CC[C@]2(C)C(=O)CC[C@@H]12", 1.16),
    ("CCN(CC)CCCC(C)Nc1cc(-c2ccccc2)nc2cc(OC)ccc12 (configuration not stated)", 1.57),
    ("Cc1cc2nc(-c3c(N)ncc(C#N)c3-c3ccc(Cl)cc3)[nH]c2cc1C", 1.45),
    ("CC[C@H](Nc1nc(N)nc(C2CC2)c1C#N)c1nc2cccc(NCc3ccc(C(=O)NO)cc3)c2c(=O)n1-c1ccccc1", 0.64),
]

Prompt line: Entry COc1cc(/C=C2\CN(C(=O)CCN3CCC(=NO)CC3)C/C(=C\c3cc(OC)c(OC)c(OC)c3)C2=O)cc(OC)c1OC : reported log10(TGI) = ?
Response line: 0.68

Prompt line: Please report the recorded log10(TGI) for CC[C@H](C)[C@H]1NC(=O)[C@@H](NC(=O)[C@@H](CC(C)C)N(C)C(=O)C2C=CCN2)[C@@H](C)OC(=O)[C@H](Cc2ccc(OC)cc2)N(C)C(=O)[C@@H]2CCCN2C(=O)[C@H](CC(C)C)NC(=O)[C@@H](C)C(=O)[C@H](C(C)C)OC(=O)C[C@@H]1O (some centres not stated) (H-[ξΔPro][dNMeL]T[X35]LP[NMeY](Me); ester 3-C) .
Response line: -0.74

Prompt line: Quick one: log10(TGI) of CN(C)CCCc1c2ccccc2nc2ccc(Cl)cc12 ?
Response line: 1.62

Prompt line: What does the record list as log10(TGI) for CC1(C)[C@@H](OC(N)=O)C=C[C@]2(CO)[C@H]3CC[C@]4(C)[C@@H](c5ccc(=O)oc5)[C@@H](Cl)C[C@]4(O)C3=CC[C@@H]12 ?
Response line: -1.51

---

Test system: SK-MEL-2 melanoma
Assay: NCI tumour cell line growth inhibition, 48 h
Result type: TGI

# Compound, Result type, Measured result
records = [
    ("COC(=O)[C@H]1N[C@@H](C(=O)OC)C23CCC[C@H]2CC[C@]1(C(OC)OC)C3", "TGI", "> 100 µM"),
    ("N#C/C(C(=O)Nc1ccccc1)=C(/N)N1CCCCC1", "TGI", "> 100 µM"),
    ("Cc1cc2nc(-c3c(N)ncc(C#N)c3-c3ccc(Cl)cc3)[nH]c2cc1C", "TGI", "> 100 µM"),
    ("CC(=Nc1cc(Cl)cc(Cl)c1)c1ccncc1", "TGI", "> 100 µM"),
    ("CC(=O)O[C@H]1CCC2[C@@H]3CCC4NC(=O)C(C#N)C[C@]4(C)C3CC[C@@]21C (stereo not given in full)", "TGI", "> 10 µM"),
    ("O=[N+]([O-])c1ccc2c(c1)n1c(N3CCCC3)[n+]3ccccc3c1c1c3cccc[n+]3c(N3CCCC3)n21", "TGI", "> 100 µM"),
]

Alright, here's another compound for you.
Prompt line: Bench note: what TGI did C[C@]12CC[C@H]3[C@@H](CCC4=C(Br)C(=O)C=C[C@@]43O)[C@@H]1CCC2=O show?
Response line: > 100 µM

---

System: DU-145 prostate
Experiment: NCI tumour cell line growth inhibition, 48 h
Result type: TGI (µM)
Write it as a number; the unit µM goes unstated.

# Compound, TGI, µM
measured = [
    ("C=C(C)[C@@H]1CC[C@]2(CO)CC[C@]3(C)[C@H](CC[C@@H]4[C@@](C)(CCCN)[C@H](C(=C)C)CC[C@]43C)[C@@H]12", 3.06),
    ("CC(C)(C)n1cc(-c2ccnc(NCCCNS(=O)(=O)c3ccc(Br)cc3)c2)c(-c2cccc(O)c2)n1", 4.23),
    ("CCCCCCNC(=O)Oc1ccc(/C(=C(/C)Cc2ccc(OC)cc2)c2ccc(OCCN(C)C)cc2)cc1", 10.4),
    ("C[PH+](c1nc2ccccc2nc1[PH+](C)C(C)(C)C)C(C)(C)C.C[PH+](c1nc2ccccc2nc1[PH+](C)C(C)(C)C)C(C)(C)C.[Au+].[Cl-] (stereo unspecified)", 0.374),
    ("CNCCNc1nc2ccccc2c2c(=O)c3cc(OC)ccc3sc12", 3.16),
]

Prompt line: Recorded TGI for Cc1cc2nc(-c3c(N)ncc(C#N)c3-c3ccc(Cl)cc3)[nH]c2cc1C , please?
Response line: 27.1

Prompt line: Need TGI, item COC(=O)/C=C1\C(=O)C=C2[C@@H]3C[C@H]4C[C@H](CC[C@@]4(C)N21)C3(C)NC(C)=O (stereo partly specified)
Response line: 32.8

Prompt line: Item C[C@]12CC[C@H]3[C@@H](CCC4=C(Br)C(=O)C=C[C@@]43O)[C@@H]1CCC2=O has what recorded TGI?
Response line: 68.7

Prompt line: I would be grateful if you could share the reported TGI for CC1CN=C(c2ccc(CN3CCC(C4CCN(Cc5ccc(C6=NCC(C)N6)cc5)CC4)CC3)cc2)N1 (stereo unspecified) .
Response line: 30.6

Prompt line: Bench note: what TGI did COC(=O)c1cc(-c2ccc(OC)cc2)[nH]c1N/N=C/c1c(Cl)cccc1Cl show?
Response line: 0.831

Prompt line: Param item = CC1CN=C(c2ccc(-c3nc(-c4ccc(C5=NCC(C)N5)cc4)nc(N(C)C)n3)cc2)N1 (stereo unspecified) ; retrieve measured TGI.
Response line: 5.59

Prompt line: Find the recorded TGI belonging to CC[C@]1(O)C[C@@H]2CN(CCc3c([nH]c4ccccc34)[C@@](C(=O)OC)(c3cc4c(cc3OC)N(C)[C@H]3[C@@](O)(C(N)=O)[C@H](O)[C@]5(CC)[C@@H]6C[C@@H]6CN6CC[C@]43[C@@H]65)C2)C1 and report it.
Response line: 0.795

---

Test system: SK-MEL-28 melanoma
Assay: NCI tumour cell line growth inhibition, 48 h
Documented GI50 across a set of molecules

# Molecule, Assayed target, GI50
data = [
    ("CC(=O)c1cccc(-c2cccc(-c3ccn(CCN4CCOCC4)n3)c2)c1", "SK-MEL-28 melanoma", "> 20 µM"),
    ("Oc1c(CN2CCCC2)cc(CSCc2ccccc2)c2cccnc12", "SK-MEL-28 melanoma", "1.85 µM"),
    ("CC(=O)c1cc(-c2ccccc2N)n(-c2ccc3c(c2)OCO3)c1C", "SK-MEL-28 melanoma", "2.34 µM"),
    ("C/C(=C(/c1ccc(O)cc1)c1ccc(Cl)cc1)c1ccccc1", "SK-MEL-28 melanoma", "0.685 µM"),
    ("COc1cc(/C=C2\\CC3C4CC=C5C[C@@H](O)CC[C@]5(C)C4CC[C@]3(C)C2=O)ccc1OCCCn1ccnc1 (stereo not given in full)", "SK-MEL-28 melanoma", "28.9 µM"),
]

Prompt line: For the molecule CC[C@]1(O)C[C@@H]2CN(CCc3c([nH]c4ccccc34)[C@@](C(=O)OC)(c3cc4c(cc3OC)N(C)[C@H]3[C@@](O)(C(N)=O)[C@H](O)[C@]5(CC)[C@@H]6C[C@@H]6CN6CC[C@]43[C@@H]65)C2)C1 , what GI50 is on record?
Response line: 6.47 µM

Prompt line: Please report the recorded GI50 for CCCCN(CC)c1ncnc2ccc(Br)cc12 .
Response line: 18.1 µM

Prompt line: What does the data say about its GI50? Entry: C[PH+](c1nc2ccccc2nc1[PH+](C)C(C)(C)C)C(C)(C)C.C[PH+](c1nc2ccccc2nc1[PH+](C)C(C)(C)C)C(C)(C)C.[Au+].[Cl-] (stereo not given)
Response line: 0.0538 µM

Prompt line: Query: GI50; subject: CCCCCCNC(=O)n1cc(F)c(=O)[nH]c1=O
Response line: 3.96 µM

Prompt line: I have this molecule here, CCCCCCNC(=O)Oc1ccc(/C(=C(/C)Cc2ccc(OC)cc2)c2ccc(OCCN(C)C)cc2)cc1 , and I need its recorded GI50.
Response line: 3.88 µM
